Tested on: SNB-19
Test: NCI tumour cell line growth inhibition, 48 h
Activity calls are given as the source filed them. No stated cut-off is given here; in the data, active = GI50 up to about 1.1 µM and inactive = higher.
Measured quantity: GI50

Lab note: need GI50 with SNB-19 for entry CCOC(=O)c1c2c(n3ccccc13)C(=O)c1ccccc1C2=O , please look it up.
80 µM (inactive)

Reported GI50 for SNB-19, given CC(C)(C)NNC(=O)CCn1[nH]c(=O)c(Cl)c(Cl)c1=O ?
> 100 µM (inactive)

Find the measured GI50: item CCOc1ccccc1/C=C(/C#N)C(N)=O , target or system SNB-19.
> 100 µM (inactive)

Could you now consider this next molecule?
Return GI50 measured with SNB-19 given this molecule: COC(=O)CCC1(C)C2CCC1(C)/C(=N/O)C2 (stereo not drawn)
> 100 µM (inactive)
